Counter-ions that a name gives are not always drawn.
Record type: CC-v2 (curve classes) measurement. Applies to: recombinant human AChE (Homo sapiens)
QUANTITY NAME: CC-v2 (curve classes)

CCOC(=O)c1ccc(NC(=O)CN2CCCCC2)cc1 [Sulcaine, reference compound]    4
COc1cc2c(N3CCN(C(=O)Nc4ccc(OC(C)C)cc4)CC3)ncnc2cc1OCCCN1CCCCC1 [Tandutinib, reference compound]    4
Cc1c(Cl)c(=O)oc2cc(OP(=O)(OCCCl)OCCCl)ccc12 [Haloxon]    -1.1
O=P(Oc1ccccc1)(Oc1ccccc1)Oc1ccccc1 [Triphenyl phosphate]    -2.1
Nc1ccc(N)c(Cl)c1.O=S(=O)(O)O [2-Chloro-1,4-diaminobenzene sulfate]    4
CNC(=O)Oc1cccc2c1OC(C)(C)C2 [Carbofuran]    -1.1
CCCCCC1Nc2cc(C(F)(F)F)c(S(N)(=O)=O)cc2S(=O)(=O)N1 (stereo not drawn) [Penflutizide]    4
COP(=S)(OC)SCn1nnc2ccccc2c1=O [Azinphos-methyl]    4
C[n+]1cc2c3c(ccc2c2ccc4cc5c(cc4c21)OCO5)OCO3 [Sanguinarine]    4
CC[n+]1c(-c2ccccc2)c2cc(N)ccc2c2ccc(N)cc21 [Ethidium bromide]    4
O=C(c1ccc(OCCN2CCCCC2)cc1)c1c(-c2ccc(O)cc2)sc2cc(O)ccc12 [Raloxifene hydrochloride, reference compound]    -1.1
COc1cc(N)c(Cl)cc1C(=O)NC1CN2CCC1CC2.Cl (stereo not drawn) [Zacopride hydrochloride]    4
CNC(=O)Oc1ccc(N(C)C)c(C)c1 [Aminocarb]    -2.1
CCOP(=S)(OCC)OP(=S)(OCC)OCC [Sulfotepp]    -1.1
CCN(CC)C(=O)[C@@H]1C=C2c3cccc4[nH]cc(c34)C[C@H]2N(C)C1 [Lysergide]    4
Nc1c(NC/C=C\COc2cc(CN3CCCCC3)ccn2)c(=O)c1=O [Pibutidine]    4
CN1CCCN=C1/C=C/c1cccs1.O=C(O)C(O)C(O)C(=O)O [Pyrantel tartrate]    4
COP(=O)(OC)Oc1ccc([N+](=O)[O-])cc1 [Methylparaoxon]    -2.1
CCOP(=S)(OCC)O/N=C(\C#N)c1ccccc1 [Phoxim]    -1.1
Cl.O=C(c1ccc(F)cc1)C1CCN(CCn2c(=S)[nH]c3ccccc3c2=O)CC1 [Altanserin hydrochloride]    4
C=CCN1CC[C@]23CCCC[C@H]2[C@H]1Cc1ccc(O)cc13 [Levallorphan]    4
CCOP(=S)(OCC)Oc1ccc([N+](=O)[O-])cc1 [Parathion]    -1.1
CC(C)Nc1nc(Cl)nc(NC(C)C)n1 [Propazine]    4
CCOP(=S)(OCC)SCn1nnc2ccccc2c1=O [Azinphos-ethyl]    -1.1
CCN1CCC2(CC1)COc1cc3c(cc12)N(C(=O)c1ccc(-c2ccc(-c4nnc(C)o4)cc2C)cc1)CC3.Cl [SB236057A]    4
COP(=O)(OC)O/C(C)=C/C(=O)N(C)C [Dicrotophos]    4
COc1ccc2c(c1OC)CN1CCc3cc4c(cc3[C@@H]1C2)OCO4 [Canadine]    -3
CCOP(=S)(OCC)SCSC(C)(C)C [Terbufos]    -2.1
CCOP(=S)(OCC)SCSCC [Phorate]    4
CCc1ccc(C(=O)C(C)CN2CCCCC2)cc1.Cl (stereo not drawn) [Eperisone hydrochloride, reference compound]    4
CCN(CC)CCNC(=O)c1c(C)[nH]c(/C=C2\C(=O)Nc3ccc(F)cc32)c1C [Sunitinib malate, reference compound]    -2.2
CCOP(=O)(OCC)OC(=CCl)c1ccc(Cl)cc1Cl [Chlorfenvinphos]    -1.1
CCCCCCCCCCCCc1ccc(S(=O)(=O)O)cc1 [Dodecylbenzenesulfonic acid]    4
Cc1cc(N)c2cc(NC(=O)Nc3ccc4nc(C)cc(N)c4c3)ccc2n1.Cl.Cl [Aminoquinuride dihydrochloride]    4
COP(=S)(Oc1cc(Cl)c(Br)cc1Cl)c1ccccc1 (stereo not drawn) [Leptophos]    -1.1
CC(=O)Oc1cc(C(C)C)c(OCCN(C)C)cc1C [Moxisylyte hydrochloride, reference compound]    -2.4

// data source = paper PMC8041433
